Test: Example 6: plasma concentration of unchanged Compound 1 (LC-MS/MS)
Type: in vivo, human
Settings: male, human, plasma, oral; Part A Day 1, load dose 320 mg, across cohorts; read-out: median Tmax
Method: Subjects in Cohort 1 received a load dose of 320 mg and a maintenance dose of 80 mg; subjects in Cohort 2 received a load dose of 320 mg and a maintenance dose of 120 mg; subjects in Cohort 3 received a load dose of 320 mg and a maintenance dose of 160 mg; and subjects in Cohort 4 received a load dose of 360 mg and a maintenance dose of 120 mg. […]
measurement-name: Tmax (h)
Answers are plain numbers, in h.

// Tmax lookup, molecule = CONC(=O)Nc1ccc(-c2sc3c(c2CN(C)C)c(=O)n(-c2ccc(OC)nn2)c(=O)n3Cc2c(F)cccc2F)cc1 [Compound 1] , result: 1

Taken from patent US12629370B2.
